assay: Bioavailability in Sprague-Dawley rat at 1 mg/kg, sc; assay type: ADME, organism-based; settings: in vivo
Non-standard residues stand in square brackets, D forms with d. Residues, ends and D or L forms follow the SMILES beside them. Arg(Me) = CNC(=N)NCCC[C@H](N)C(=O)O; d4Pal = N[C@H](Cc1ccncc1)C(=O)O; azaGly = NNC(=O)O
Quantity measured: bioavailability (%)
Provide only the numeric value, understood in %.

*Q* Give a short answer stating reported bioavailability for CNC(=N)NCCC[C@H](NC(=O)[C@H](CC(C)C)NC(=O)NNC(=O)[C@H](Cc1ccccc1)NC(=O)[C@H](CO)NC(=O)[C@H](CC(N)=O)NC(=O)[C@@H](Cc1ccncc1)NC(=O)[C@H](N)Cc1ccc(O)cc1)C(=O)N[C@@H](Cc1ccccc1)C(N)=O [KISS1-305] (H-[dY][d4Pal]NSF[azaGly]L[Arg(Me)]F-NH2) .
*A* 40.4
